These data points were gathered from PubChem BioAssay.

protocol.summary: small-molecule microarray binders of probe aCHRDL2, primary screen, biochemical, biotinylated probe, 635/667 nm fluorescence (AID 1100)
condition.label: higher = more signal
Reported composite z-score values follow for various compounds
observable: composite z-score

>>> test_result("N#Cc1ccc(NN2C(C(O)c3cccs3)C=CC3C(=O)N(c4ccccc4)C(=O)C32)cc1 (centres undefined)")
-0.25
>>> test_result("COC(=O)C(CC#Cc1ccc2c(c1)[C@]1(C(=O)N2)[C@H](C(=O)NC[C@H](O)c2ccccc2)[C@H]2C(=O)O[C@H](c3ccccc3)[C@H](c3ccccc3)N2[C@@H]1c1ccc(OCCO)cc1)C(=O)OC")
0.0724
>>> test_result("CCCCC=C[C@@H](NC(=O)c1ccc(C(=O)OC)cc1)c1ccccc1")
0.613
>>> test_result("CCC[C@@H]1C=C(C(=O)O)[C@H](c2ccc(C)cc2)N1S(=O)(=O)c1ccc(C)cc1")
0.817
>>> test_result("O=C1O[C@H](c2ccccc2)[C@H](c2ccccc2)N2[C@H]1[C@@H](C(=O)N1CCN(c3ncccn3)CC1)[C@]1(C(=O)Nc3ccccc31)[C@H]2c1ccc(OCCO)cc1")
0.174
>>> test_result("CCCCC(CC)C(O)C1C=CC2C(=O)N(c3ccccc3)C(=O)C2N1Nc1ccccc1 (centres undefined)")
0.932
>>> test_result("COc1ccc(CCN2C(=O)[C@@]3(Cc4ccccc42)c2ccccc2C(=O)N(Cc2ccccc2Cl)[C@H]3c2ccc(CO)cc2)cc1")
0.929
>>> test_result("CC(C)C(=C=CC[C@H](O)c1cccc(OCCO)c1)C[C@H](O)COCc1ccccc1")
-0.154
>>> test_result("CC(C)=CCCC(C)=CC(O)C1C=CC2C(=O)N(c3ccccc3)C(=O)C2N1Nc1ccccc1 (centres undefined)")
0.997
>>> test_result("CC(C)C[C@@H]1NC(=O)[C@H]2C[C@@H](C(=O)NCCCCCNC(=O)CS)[C@@H](c3cccc(OCCO)c3)N2C1=O")
-0.003
>>> test_result("[N-]=[N+]=Nc1ccccc1[C@@H]1OC(c2ccc(OCCCO)cc2)=N[C@]1(CCS(=O)(=O)c1ccccc1)C(=O)N1CCOCC1")
0.994
>>> test_result("COCCCNC(=O)[C@@]1(CCC(=O)OC(C)(C)C)N=C(c2ccc(OCCCO)cc2)O[C@H]1c1ccccc1CN=[N+]=[N-]")
1.08
>>> test_result("CCCN1C(=O)[C@]2(COC(c3ccc(OCCCO)cc3)=N2)Cc2ccccc21")
1.1
>>> test_result("Cc1ccc(S[C@]2(C(=O)NC3CC3)CC(=O)N(Cc3ccccc3)[C@@H]2c2ccc(CO)cc2)cc1")
0.892
